Recorded values, source paper PMC9482650.

Biological target: T1, GRIP1_3, Q9Y3R0
T1 sequence (Q9Y3R0 247-346, limits assumed, looked up): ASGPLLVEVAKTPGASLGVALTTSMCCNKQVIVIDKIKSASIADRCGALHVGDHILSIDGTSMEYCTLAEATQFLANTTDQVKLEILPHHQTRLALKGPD
Assay: holdup assay
Parameters: key: below the threshold = too weak to quantify, mostly under pKd 3.1 to 4
Settings: plain residues with an end cap or a label only (N-terminal biotin on a linker: ado-ado)
MEASURE: pKd

1. EKKTLIGIKL [GOT1L1, Q8NHS2] :: below the threshold
2. VYPNAKVELV [PDLIM4_iso2, P50479;P50479-1] :: below the threshold
3. LRSPRTPSEV [OR10G3, Q8NGC4] :: below the threshold
4. QGPVETESVV [SLC45A4, Q5BKX6] :: below the threshold
